// provenance: patent US20080200654A1

Entries and their Inhibition (%)
Biological target: T1, A33 antigen (full-length human A33) (human, UniProt Q99795 22-319)
T1 construct: Class I cell membrane protein of the Ig superfamily; also called GPA33; human A33 antigen
T1 sequence: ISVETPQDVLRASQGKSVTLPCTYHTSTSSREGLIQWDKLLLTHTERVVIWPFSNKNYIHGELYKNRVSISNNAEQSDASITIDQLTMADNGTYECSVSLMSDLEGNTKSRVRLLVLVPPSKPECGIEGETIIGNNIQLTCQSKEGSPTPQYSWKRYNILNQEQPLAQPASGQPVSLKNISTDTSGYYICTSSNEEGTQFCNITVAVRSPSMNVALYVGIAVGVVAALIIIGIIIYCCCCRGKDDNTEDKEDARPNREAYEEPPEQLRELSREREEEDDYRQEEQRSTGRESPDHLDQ
Test: FCM competition on COLO205 cells as in Example 10; competitor mouse anti-A33 antibody
Write the value in % as a bare number.

stdin: What value of Inhibition (%) has been recorded for this entry: chimeric anti-A33 antibody (antibody, V domains shown, Mouse variable regions with human IgG1 heavy chain and light chain constant regions (N5KG1-Val Lark vector); also called cA33; chimeric anti-A33 recombinant antibody) VH: EVKLVESGGGLVKPGGSLKLSCAASGFAFSTYDMSWVRQTPEKRLEWVATISSGGSYTYYLDSVKGRFTISRDSARNTLYLQMSSLRSEDTALYYCAPTTVVPFAYWGQGTLVTVSS VL: DIVMTQSQKFMSTSVGDRVSITCKASQNVRTVVAWYQQKPGQSPKTLIYLASNRHTGVPDRFTGSGSGTDFTLTISNVQSEDLADYFCLQHWSYPLTFGSGTKLEVK
stdout: 94.6

stdin: And recM10 (antibody, V domains shown, also called recM10 antibody; M10 recombinant antibody) VH: QLQVQESGPGLVKPSETLSLICTVSGGSIRTSGYYWGWFRQPPGKGLEWIGTSHNSGSTYYNPSLKSRVTISVDTSKNQFSLKLNSVTAADTAVYYCARQGYDFKVNIDVWGQGTTVTVSS VL: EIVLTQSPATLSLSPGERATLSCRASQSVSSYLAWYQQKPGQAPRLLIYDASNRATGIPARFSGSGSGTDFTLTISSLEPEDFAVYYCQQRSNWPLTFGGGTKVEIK ?
stdout: 0.2

stdin: And recQ54 (antibody, V domains shown, also called recQ54 antibody; Q54 recombinant antibody) VH: EVQLLESGGGLVQPGGSLRLSCAASGFTFSSYAMSWVRQAPGKGLEWVSDISGSGGYTYYADSVKGRFTISRDNSKNTLYLQMNSLRAEDTAVYYCAKTGDGSGSYSPDSWGQGTLVTVSS VL: DIQMTQSPSSLSASVGDRVTITCRASQGISRWLAWYQQKPEKAPKSLIYAASSLQSGVPSRFSGSGSGTDFTLTISSLQPEDFATYYCQQYNSYPYTFGQGTKLEIK ?
stdout: 44.6
